# credit: ChEMBL document CHEMBL3044680

System: Escherichia coli
assay_info: Antimicrobial activity against Escherichia coli at 200 ug/ml after 48 hr by cup-plate method
Type: functional
applied_conditions: read-out: IZ
Parameter: zone of inhibition at 200 µg/mL. Scope: all listed entries.
Give the quantity in mm, number only.

Some solved cases for reference:
{"columns": ["smiles_notation", "zone of inhibition at 200 µg/mL, mm"],
 "data": [
  ["O=C(c1ccc(-n2c(-c3ccccc3)nc3ccccc3c2=O)cc1)[n+]1nc([S-])sc1-c1cccc([N+](=O)[O-])c1", 13],
  ["Cc1sc([S-])n[n+]1C(=O)c1ccc(Nc2nc(-c3ccccc3)nc3ccccc23)cc1", 20],
  ["O=C(c1ccc(Nc2nc(-c3ccccc3)nc3ccccc23)cc1)[n+]1nc([S-])sc1-c1cc([N+](=O)[O-])ccc1Cl", 24]
]}

Tested on Escherichia coli: `O=C(c1ccc(-n2c(-c3ccccc3)nc3ccccc3c2=O)cc1)[n+]1nc([S-])sc1-c1ccc(Cl)cc1` . Observed zone of inhibition at 200 µg/mL: 16
